Origin of measurements: paper PMC12489474

Exercise: for every item that follows, state its recorded Kd.
- system_under_test: RARalpha dAB dF;RXRalpha dAB (Mus musculus / Homo sapiens (Methods …, UniProt P11416;P19793 82-421;126-462, |))
- Sequence (P11416 82-421, chain 1 of 2): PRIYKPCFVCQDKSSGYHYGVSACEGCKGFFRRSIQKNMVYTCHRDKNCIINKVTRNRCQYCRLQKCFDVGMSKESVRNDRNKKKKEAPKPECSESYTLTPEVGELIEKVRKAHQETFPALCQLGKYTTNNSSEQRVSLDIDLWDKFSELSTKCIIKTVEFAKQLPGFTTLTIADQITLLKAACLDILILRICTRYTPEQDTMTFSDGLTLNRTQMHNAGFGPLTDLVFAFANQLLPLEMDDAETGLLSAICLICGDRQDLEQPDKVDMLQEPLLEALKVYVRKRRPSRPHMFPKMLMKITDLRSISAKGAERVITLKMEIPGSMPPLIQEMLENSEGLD
- Sequence (P19793 126-462, chain 2 of 2): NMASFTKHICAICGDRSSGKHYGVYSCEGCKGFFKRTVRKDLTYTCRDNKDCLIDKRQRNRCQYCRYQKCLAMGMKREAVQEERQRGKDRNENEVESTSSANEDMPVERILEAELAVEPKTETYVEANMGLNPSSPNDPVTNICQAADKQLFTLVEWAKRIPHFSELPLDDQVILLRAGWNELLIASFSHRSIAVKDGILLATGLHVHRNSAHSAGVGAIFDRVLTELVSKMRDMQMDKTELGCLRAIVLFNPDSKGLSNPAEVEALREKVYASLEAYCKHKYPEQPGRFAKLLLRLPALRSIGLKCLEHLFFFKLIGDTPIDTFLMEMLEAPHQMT
- method: fluorescence anisotropy; apo; Fluorescence anisotropy: 20 mM Tris-HCl pH 7.5, 75 mM NaCl, 75 mM KCl, 2 mM CHAPS, 4 mM MgCl2, 2 mM TCEP, 10% glycerol, 0.5 nM Cy5-DNA, 4 uM ligands, 294 K
- test_conditions: protein: recombinant;recombinant; tags: N-terminal His6 (pET15b); copies: 1;1; label: Cy5 on forward strand; blunt
Numbers only, in nM.

>>> df
                                     binder  value_kind  recorded_measurement
0  DR1 idealized Cy5 (dsDNA) DNA 1: CTAGGTCAAAGGTCAGC DNA 2: GCTGACCTTTGACCTAG          Kd                   6.1

I would be grateful if you could provide Kd for each of the following entries.
1. DR0 Hoxb13 Cy5 (dsDNA) DNA 1: GAAGGTCAAGGCCAAG DNA 2: CTTGGCCTTGACCTTC
2. DR5 Rarb2 Cy5 (dsDNA) DNA 1: AGGGTTCACCGAAAGTTCACT DNA 2: AGTGAACTTTCGGTGAACCCT

Result block:
[33.5, 1.7]
